Where do the numbers come from? From patent US20110142842A1.

% Pass/fail control values by entry
molecular target: HLA-A*0201 (human, UniProt A*02:01); assay: REVEAL MHC binding assay (ProImmune)
Experimental readout: % Pass/fail control

binder="SMFHVTLKI [Peptide ID 128 SMFHVTLKI (CLL-1)]" experimental_readout="% Pass/fail control" recorded_value="307 % of pass/fail control"
binder="LLRTGGWKV [Peptide ID 39 LLRTGGWKV (CD19)]" experimental_readout="% Pass/fail control" recorded_value="124 % of pass/fail control"
binder="FLYIGIITI [Peptide ID 4 FLYIGIITI (CD53)]" experimental_readout="% Pass/fail control" recorded_value="136 % of pass/fail control"
binder="FLDCQIHRV [Peptide ID 7 FLDCQIHRV (CD127)]" experimental_readout="% Pass/fail control" recorded_value="224 % of pass/fail control"
binder="TLWQLVEYL [Peptide ID 97 TLWQLVEYL (ZAP-70)]" experimental_readout="% Pass/fail control" recorded_value="198 % of pass/fail control"
binder="ALYDKTKRI [Peptide ID 115 ALYDKTKRI (TdT_TV2)]" experimental_readout="% Pass/fail control" recorded_value="260 % of pass/fail control"
binder="YLALGDQML [Peptide ID 91 YLALGDQML (CD50)]" experimental_readout="% Pass/fail control" recorded_value="197 % of pass/fail control"
binder="SLFEGIYTI [Peptide ID 6 SLFEGIYTI (FLT3)]" experimental_readout="% Pass/fail control" recorded_value="183 % of pass/fail control"
